- procedureDetails: Quantitative highthroughput screen to assess conditional lethalithy of NOMO1 cells grown in RPMI1640 with untreated serum (RPMI+s) (AID 1963876); also: nearly all actives have a fitted effect of over 35% in size;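 as to viability: 100% = DMSO wells and 0% = empty wells without cells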
- testParameters: NOMO1 AML cells in RPMI+serum, CellTiter-Glo viability, 48 h; series mostly up to 45.8 µM
Results filed as inconclusive are left out. Calls of active or inactive are those of the source. Calls follow the shape of the dose curve; as a rule, active = well fitted cell-killing curve with a large enough effect; inconclusive = small, poorly fitted or top-dose-only effect; inactive = flat fitted curve, though single readings scatter.
Possible outcomes: class 1 = active, class 0 = inactive

>>> assignedcategory("Cc1cnc(C(=O)NCCc2ccc(S(=O)(=O)NC(=O)NC3CCCCC3)cc2)cn1")
"class 0"
>>> assignedcategory("COc1cc(C)c(C=CC(C)=CC=CC(C)=CC(=O)O)c(C)c1C")
"class 0"
>>> assignedcategory("CN(C)C(=O)[C@H](O)[C@H](Cc1ccccc1)NC(=O)c1cc2cc(Cl)ccc2[nH]1")
"class 0"
>>> assignedcategory("NC(=O)c1noc([C@H](CCCC2CCCCC2)CC(=O)NO)n1")
"class 1"
>>> assignedcategory("Nc1cc(C(Cl)=C(Cl)Cl)c(S(N)(=O)=O)cc1S(N)(=O)=O")
"class 1"
>>> assignedcategory("NNC(=O)c1ccncc1")
"class 0"
>>> assignedcategory("O=c1oc2c(O)c(O)cc3c(=O)oc4c(O)c(O)cc1c4c23")
"class 0"
>>> assignedcategory("COc1ccc2cc(-c3nc(-c4ccc(S(C)=O)cc4)[nH]c3-c3ccncc3)ccc2c1 (stereo unspecified)")
"class 0"
>>> assignedcategory("C#Cc1cccc(Nc2ncnc3cc(OC)c(OCCCCCCC(=O)NO)cc23)c1")
"class 1"
>>> assignedcategory("CCCCCCOC(=O)N=C(N)c1ccc(NCc2nc3cc(C(=O)N(CCC(=O)OCC)c4ccccn4)ccc3n2C)cc1")
"class 1"
>>> assignedcategory("N#Cc1c(O)c2c(-c3ccc(-c4ccccc4O)cc3)csc2[nH]c1=O")
"class 0"
>>> assignedcategory("COc1cc2ncnc(Nc3cccc(Br)c3)c2cc1OC")
"class 0"
>>> assignedcategory("COc1ccc2c(OCc3nnc4ccc(-c5ccccc5)nn34)ccnc2c1")
"class 0"
>>> assignedcategory("CCC(C=C[C@@H]1OC(=O)C=C[C@H]1C)=C[C@H](C)CC=CC(C)=C[C@@H](C)C(=O)[C@@H](C)[C@H](O)[C@@H](C)CC(C)=CC(=O)O")
"class 1"
>>> assignedcategory("CCOC(=O)C1=C(N)Oc2ccc(Br)cc2C1C(C#N)C(=O)OCC (stereo unspecified)")
"class 0"
>>> assignedcategory("COc1ccc(C2CNC(=O)C2)cc1OC1CCCC1 (stereo unspecified)")
"class 0"
>>> assignedcategory("O=C(CCc1ccc(O)cc1)c1c(O)cc(O)cc1O[C@@H]1O[C@H](CO)[C@H](O)[C@H](O)[C@H]1O")
"class 0"
>>> assignedcategory("CNC1[C@H](O)C(O[C@@H]2C(O)C(O[C@H]3O[C@H]([C@@H](C)NC)CC[C@H]3N)[C@@H](N)C[C@H]2N)OC[C@]1(C)O (stereo partly specified)")
"class 0"
>>> assignedcategory("NNc1nncc2ccccc12")
"class 0"
>>> assignedcategory("Nc1nc(N)c2nc(CNc3ccc(C(=O)NC(CCC(=O)O)C(=O)O)cc3)cnc2n1 (stereo unspecified)")
"class 0"
>>> assignedcategory("CCCCN1CCC(CNC(=O)c2c3n(c4ccccc24)CCCO3)CC1")
"class 0"

---

- procedureDetails: Cellular viability qHTS for adrenocortical cancer (ACC) cell line SW-13 (AID 1963989);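 also: cells grown in serum-free medium with ITS supplement; % is scaled to controls: 0 for no effect and ±100 for the full control effect; nearly all actives have a fitted effect of over 65% in size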
- testParameters: SW-13 ACC cells viability, CellTiter-Glo, 48 h; stronger effect = lower value
Results filed as inconclusive are left out.
assayMetric: activity (max response) (%)

>>> measuredvalue("COC(=O)/C=C\\C(=O)OC")
9.62
>>> measuredvalue("C=CC(=O)Nc1cc(N2CCN(CC)CC2)ccc1Nc1cc(N(C)C(=O)Nc2c(Cl)c(OC)cc(OC)c2Cl)ncn1")
-15
>>> measuredvalue("CC(C)C(=O)Nc1cccc(C2CN3CCSC3=N2)c1 (stereo not given)")
-3.96
>>> measuredvalue("CC(=O)Oc1cccc2c1C(=O)c1c(OC(C)=O)cc(C(=O)O)cc1C2=O")
-7.7
>>> measuredvalue("CN(C)CCN1C(=O)c2ccccc2N(C)c2ccccc21")
-13.1
>>> measuredvalue("CCCCCCCCCCCCOS(=O)(=O)O")
4.63
>>> measuredvalue("COc1ccccc1OCC(O)CO (stereo not given)")
13.4
>>> measuredvalue("C=CCc1cc(OC)c(O)c(C(=O)NCCO)c1")
-2.94
>>> measuredvalue("CC1(C)CCC(CN2CCN(c3ccc(C(=O)NS(=O)(=O)c4ccc(NCC5CCOCC5)c([N+](=O)[O-])c4)c(Oc4cnc5[nH]ccc5c4)c3)CC2)=C(c2ccc(Cl)cc2)C1")
-2.3
>>> measuredvalue("CC1(C)OC[C@@H](COC(=O)CCc2ccc(OC[C@@H](O)CNCCNC(=O)N3CCOCC3)cc2)O1")
-0.309
